- targetOfAssay: Large T antigen (Simian virus 40) (UniProt P03070)
- Sequence (P03070 whole entry, looked up): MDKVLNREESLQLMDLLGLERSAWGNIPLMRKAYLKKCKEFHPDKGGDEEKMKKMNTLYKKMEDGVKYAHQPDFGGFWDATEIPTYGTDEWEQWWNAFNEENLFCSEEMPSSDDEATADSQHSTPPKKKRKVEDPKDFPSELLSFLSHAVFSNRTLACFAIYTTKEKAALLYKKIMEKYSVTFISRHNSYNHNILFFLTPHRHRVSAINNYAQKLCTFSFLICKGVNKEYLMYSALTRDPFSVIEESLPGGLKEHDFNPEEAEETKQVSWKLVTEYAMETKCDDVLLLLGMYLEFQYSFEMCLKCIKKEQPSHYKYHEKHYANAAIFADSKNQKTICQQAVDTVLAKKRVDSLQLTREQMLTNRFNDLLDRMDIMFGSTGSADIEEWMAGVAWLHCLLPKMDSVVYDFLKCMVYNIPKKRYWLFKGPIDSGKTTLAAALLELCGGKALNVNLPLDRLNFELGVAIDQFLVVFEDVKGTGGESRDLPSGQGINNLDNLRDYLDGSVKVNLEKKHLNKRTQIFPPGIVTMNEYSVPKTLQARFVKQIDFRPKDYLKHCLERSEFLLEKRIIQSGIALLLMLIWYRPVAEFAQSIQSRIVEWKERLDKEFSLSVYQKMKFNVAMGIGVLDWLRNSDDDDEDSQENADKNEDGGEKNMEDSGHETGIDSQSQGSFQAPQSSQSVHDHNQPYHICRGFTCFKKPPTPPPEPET
- assayName: SV40 large T antigen inhibitors, biochemical (AID 1903)
- measurementContext: SV40 large T antigen ATPase/helicase inhibition assay; at 20 µM; stronger effect = higher value
Among all 310,000 compounds or so, about 1,200 (0.39%) were called active. Not all results are given here. Potency and affinity values are given separately.
I'd appreciate it if you could supply inhibition values for the items below.
I only need the number, in %, no unit after it.

Which measured inhibition value corresponds to Cc1ccc(Oc2nc3ccccc3n3c(C)nnc23)c(C)c1 ?
1.35

GET /values?readout=inhibition&item= CN1CCCN(C(=O)CSc2ccccc2)CC1
27.3

Name the reported inhibition value associated with the compound O=C1CS/C(=N\N=C\c2ccco2)N1c1ccccc1
31.1

Can you look up the measured inhibition of COc1cccc(OC)c1C(=O)Nc1ccc([N+](=O)[O-])cn1 for me?
8.19

# lookup: inhibition of CCc1cc(C(=O)c2ccccc2OC)c(N)s1
12.7

Param item = CSc1nc(C)c(CCOCc2ccc(F)cc2)c(=O)[nH]1 ; retrieve measured inhibition.
6.59

# query: inhibition of entry O=C(c1ccc2c(c1)OCO2)N1CCC2(CC1)Oc1ccc(Cl)cc1C(=O)C21CC(c2cccnc2)=NO1 (stereo unspecified)
6.56

Tell me the measured inhibition of CCOc1ccc(NC(=O)CCn2ccnc2)cc1 , please.
2.19

Given C#CCn1c(=NC(=O)c2cc(-c3cccs3)nc3ccccc23)sc2cc(S(N)(=O)=O)ccc21 , state its recorded inhibition.
8.04

Sample COCCN(C(=O)COC(=O)c1cc2c(s1)CCCC2)c1c(N)n(Cc2ccccc2)c(=O)[nH]c1=O — what was its inhibition?
4.52

I'd like to know its inhibition. The compound in question is CCN(CC)CC(=O)c1c(N)n(Cc2ccccc2)c(=O)n(C)c1=O
6.97

Endpoint output: inhibition of Cc1ccc(NS(=O)(=O)c2ccc3c(c2)oc(=O)n3C)cc1 . Value?
6.64

Entry Cc1ccc2oc3nc(C)c(C(=O)Nc4cccc(C(F)(F)F)c4)cc3c(=O)c2c1 has what inhibition?
2.24

# input compound: CC(=O)OCCCNc1cc(Sc2nc3ccccc3s2)c2nonc2c1[N+](=O)[O-] ; wanted: its inhibition
22

State the recorded inhibition for this entry: CCC1CCc2sc(C(=O)OCC(=O)N(CCOC)c3c(N)n(Cc4ccccc4)c(=O)[nH]c3=O)cc2C1 (stereo unspecified)
16.3

Fill in the blank: the reported inhibition of O=C1CCCc2[nH]nc(-c3cccnc3)c21 is ____.
12

// query inhibition value for entry CC1CCN(S(=O)(=O)c2cccc(C(=O)N(Cc3ccccc3)c3ccccn3)c2)CC1
6.8

Could you share which inhibition value was measured for CCC(=O)N1c2ccccc2[C@@H](N(C(C)=O)c2ccccc2)C[C@H]1C ?
4.31

Entry under review: CCCn1cnc2cc(NCc3ccccc3O)ccc21 . Reported inhibition?
33.9

Entry Cn1c(=O)n(CCOc2ccc(Cl)cc2Cl)c2ccccc21 : reported inhibition = ?
24.1

Which inhibition value is on record for CCn1cc(S(=O)(=O)CC(=O)Nc2cc(C)ccc2C)c2ccccc21 ?
3.58

Quick check: inhibition of O=C(COC(=O)C1CCCN1C(=O)C12CC3CC(CC(C3)C1)C2)c1ccc(Br)cc1 (stereo unspecified) ?
3.8

Give the measured inhibition of CCN(CC)S(=O)(=O)c1ccc(N/N=C/c2cccnc2)nc1 .
9.01

Which inhibition value belongs to COc1cc(O)c(C(CCN2CCN(c3ccccc3)CC2)c2ccc3c(c2)OCO3)c(OC)c1 (stereo unspecified) ?
7.18

Quick check: inhibition of CCOCCc1nnc(NC(=O)Cc2ccc(Br)cc2)s1 ?
4.12

If you can, please state the reported inhibition value of CCOCCn1c(=NC(=O)CSCC(=O)Nc2cc(C)on2)sc2cc(OC)ccc21 .
-3.67

inhibition lookup needed for O=C(OCc1nc2ccccc2[n+]([O-])c1C(=O)c1ccccc1)c1cccs1 , thanks.
8.13

Entry under review: c1ccc2c(c1)C(=Nn1cnnc1)c1ccccc1-2 . Reported inhibition?
3.9

Look up inhibition for this compound: CCOC(=O)C1=C(C)NC(c2cccs2)C(=O)N1 (stereo unspecified)
6.75

State the recorded inhibition for this entry: COc1cc(Cl)cc(C#N)c1OCC(=O)O
-0.11

Would you kindly share the measured inhibition for CCc1noc(C)c1C(=O)Oc1ccc(N(C)S(=O)(=O)c2ccccc2)cc1 ?
12.4

Which measured inhibition value corresponds to CCCSc1nnc(N)s1 ?
14.6

Record request: inhibition value, item O=C(O)c1cccc(S(=O)(=O)Nc2ccc3[nH]c(=O)[nH]c3c2)c1
-8.06

Fill in: inhibition of CC/C(=N/O)C(=O)c1ccc(Br)cc1 is ___
8.42

Please report the recorded inhibition for CCc1noc(C)c1C(=O)Nc1nnc(C2CCCCC2)s1 .
16

Item Cc1cc(N/N=C/c2ccc(O)cc2)nc(NS(=O)(=O)c2ccccc2)n1 has what recorded inhibition?
10.1

// returns reported inhibition for input N/C(=N\NS(=O)(=O)c1ccccc1)c1ccccn1
16.4

I am curious: what inhibition value has been reported for CC(C)C(CCN1C(=O)c2ccccc2C1=O)c1ccco1 (stereo unspecified) ?
16.2

Entry under review: Cc1c(C(=O)OCC(C)C)[nH]c2c1C(=O)CC(c1cccs1)C2 (stereo unspecified) . Reported inhibition?
22.8

Suppose we examine the compound CCn1cnc2cc(NCc3ccccc3Cl)ccc21 ; what inhibition value has been reported?
21.6

Quick check: inhibition of Cc1ncc(CN2CCC(CO)(Cc3ccccc3)CC2)s1 ?
2.75

Data request, read-out inhibition, for Cc1ccc(CCN2CC(C(=O)NCCCN3CCN(C)CC3)CC2=O)cc1 (stereo unspecified)
3.28

Entry under review: C=CCN1C(=O)/C(=N/n2cnnc2)c2ccccc21 . Reported inhibition?
25.4

What value of measured inhibition is listed for Cc1nc(Cl)cc(N/N=C/c2ccc(O)cc2O)n1 ?
24.5

I am curious: what inhibition value has been reported for CCOc1ccc(CSCCNC(=S)Nc2ccc(OC)cc2)cc1 ?
18.9

Given the entry COc1ccc(/C=N/Nc2cc(C)nc(NS(=O)(=O)c3ccc(C)cc3)n2)cc1 , report its measured inhibition.
11.9
